# credit: patent US12655175B2

# pIC50 per entry
system under test: GABAA receptor
assay protocol: Steroid inhibition of [35S]-TBPS binding
run parameters: rat brain cortical membranes, 3 nM [35S]-TBPS, in the presence of 5 mM GABA
Experimental: Steroid Inhibition of TBPS Binding Briefly, cortices are rapidly removed following decapitation of carbon dioxide-anesthetized Sprague-Dawley rats ([…]). The cortices are homogenized in 10 volumes of ice-cold 0.32 M sucrose using a glass/teflon homogenizer and centrifuged at 1500×g for 10 min at 4° C. The resultant supernatants are centrifuged at 10,000×g for 20 min at 4° C. to obtain the P2 pellets. […] Filter bound radioactivity is measured by liquid scintillation spectrometry. […]
pIC50: −log10 of the molar value.

# compound structure string, measurement label, result
measured = [
    ("CO[C@H]1C[C@]2(C)[C@@H]([N+](=O)[O-])CC[C@H]2[C@@H]2CC[C@H]3C[C@H](O)[C@@H](OC)C[C@]3(C)[C@H]21", "pIC50", "7.30 to 8.00"),
]

Value of measured pIC50 for the entry `CN(CC(=O)[C@H]1CC[C@H]2[C@@H]3CC[C@@H]4C[C@](C)(O)CC[C@@H]4[C@H]3CC[C@]12C)c1ccccc1` : 7.00 to 7.30

Value of measured pIC50 for the entry `COC[C@]12CC[C@@](C)(O)C[C@H]1CC[C@H]1[C@@H]3CC[C@H](C(=O)CNc4ccccc4)[C@@]3(C)CC[C@@H]12` : > 8.00

Value of measured pIC50 for the entry `C[C@@]1(O)CC[C@H]2[C@H](CC[C@@H]3[C@@H]2CC[C@]2(C)[C@@H](C(=O)NCc4ccccn4)CC[C@@H]32)C1` : 6.30 to 7.00

Value of measured pIC50 for the entry `C[C@@]1(O)CC[C@H]2[C@H](CC[C@@H]3[C@@H]2CC[C@]2(C)[C@@H](C(=O)Nc4ccc(F)cc4C#N)CC[C@@H]32)C1` : 7.30 to 8.00
